From: the supplement of paper PMC10201428

Exercise: for every item that follows, state its recorded relative integration efficiency (log2).
System: VchCAST RNA-guided transposition machinery (E. coli BL21(DE3) host, lacZ target)
Experiment: relative integration efficiency (T-LR orientation) vs wild-type transposon end (log2 (normalized fold change)); transposon end mutated: left end; higher = more efficient transposition
Just the number, please, no unit after it.

Prompt line: Please look up its relative integration efficiency (log2): AATGTTGTTGATGCAACCATAAAGTGATATTTAATAATTATTTATAATCAGCAACTTAACCACAACAACCATATATTGATATCTCACAAAACAACCATAAGTTGATATTTTTGTGAATCGAGTATTTCAGCAAAACTACTGCAGTAAGAAAG
Response line: -2.53

Prompt line: Would you mind doing AATGTTGTTGATGCAACCATAAAGTGATATTTAATAATTATTTATCAACCATATATTGATATCTCACAAAACAACCATAAGTTGATATTTTTGTGAATCGAGTATTTCAGCAAAACTACTGCAGTAAGAAAGTTACTTCGTGGTATGGGAGG as well?
Response line: -3.55

Prompt line: What would you report for AATGTTGTTGATGCAACCATAAGTTGATATTTTATAATTATTTATAATCAGCAACTTAACCACAAAACAACCATATATTGATATCTCACAAAAGTTGGTATTCAACTATAAAATGTGAATCGAGTATTTCAGCAAAACTACTGCAGTAAGAA ?
Response line: -1.32

Prompt line: AATGTTGTTGATGCACCCATAAATTGATAATTAATAATTATTTATAATCAGCAACTTAACCACAAAACACCCATAAATTGATATTGCACAAAAGTTGGTATTCAACTATAAAATGTGAATCGAGTATTTCAGCAAAACTACTGCAGTAAGAA , same question.
Response line: -1.72

----------
What relative integration efficiency (log2) was measured for each of the following?
Test system: VchCAST RNA-guided transposition machinery (E. coli BL21(DE3) host, lacZ target)
Assay: relative integration efficiency (T-RL orientation) vs wild-type transposon end (log2 (normalized fold change)); transposon end mutated: right end (5 bp flank + 75 bp right end); higher = more efficient transposition
Quick one: just the number, no unit, thanks!

Prompt line: Given ACATTTGTTGATACAACCATAAAAACATAATTACACCCATAAATTGATAATTATCACACCCATAAATTGATATTGCCTCTGATCATAGTCAGACCAACATTGCTACGACCCGTATTCGCACCGACAC , state its recorded relative integration efficiency (log2).
Response line: -1.45

Prompt line: Then this sequence: ACATTTGTTGATACAACCATAAAATGATAATTACAACCATAAGTTGATATTTTTCACAACCATATATTGATATCTCCTCTGATCATAGTCAGACCAACATTGCTACGACCCGTATTCGCACCGACAC
Response line: -0.125

Prompt line: What do we get for ACATTTGTTGATACCACCATCAAATGATAATTACACCCCTAAATTGATAATTATCACACCCAATTTAACTATAACGCTCTGATCATAGTCAGACCAACATTGCTACGACCCGTATTCGCACCGACAC ?
Response line: -4.72

Prompt line: Next entry: ACATTTGTTGATACAACCATAAAATGATCATTCACCCATAAATTGATAATTATCACACCCACATTTAACTATAACGCTCTGATCATAGTCAGACCAACATTGCTACGACCCGTATTCGCACCGACAC
Response line: -3.25

Prompt line: Input ACATTTCTGGATACAACCATAAAATGATAATTACACCCATAAATTCATAATTATCACACCCAATTTAACTATAACGCTCTGATCATAGTCAGACCAACATTGCTACGACCCGTATTCGCACCGACAC
Response line: -3.39

----------
Tested on: VchCAST RNA-guided transposition machinery (E. coli BL21(DE3) host, lacZ target)
Assay: relative integration efficiency (T-RL orientation) vs wild-type transposon end (log2 (normalized fold change)); transposon end mutated: right end (5 bp flank + 75 bp right end); higher = more efficient transposition
readout.kind: relative integration efficiency (log2)
Please reply with the number alone, leaving off any unit.

Prompt line: # get_value(readout='relative integration efficiency (log2)', item= ACATTTGTTGATACAACCATAAAATCATAATTACCCCCATAAATTGATAATTATCCCACCCCATTTAACTATAACGCTCTGATCATAGTCAGACCAACATTGCTACGACCCGTATTCGCACCGACAC )
Response line: -3.28

Prompt line: Next record, please: ACATTTGTCGATACAACCATAAAACGATAATTACACCCATAAATTCATAATTATCACACCCAATTTAACTATAACGCTCTGATCATAGTCAGACCAACATTGCTACGACCCGTATTCGCACCGACAC
Response line: -2.45

Prompt line: Same thing, different sequence: ACATTTGTTGATACAACCATAAAATGATAATTACACCCATAAATTGATAATTATCACACCCATAAATTGATATTGCCTCTGATCATCAACCATAAAATGATAATTAAGTCAGACCAAGCACCGACAC
Response line: 0.146

Prompt line: Same question for ACATTTGTTGATACAACCATAAAATGATAATTACACCCATAAATTGATAATTATCAAACACCCATAAATTGATATTGCCTCTGATCATAGTCAGACCAACATTGCTACGACCCGTATTCGCACCGAC please.
Response line: -0.252

Prompt line: Same for ACATTTGTAAAAAAAACCATACGTTGATTTTACGAAACCATACGCTGAAATAAAAACAACCATACCTTGAAATTGCCTCTGATCATAGTCAGACCAACATTGCTACGACCCGTATTCGCACCGACAC
Response line: -6.84

Prompt line: And then ACATTTGTGGATACAACCATAAAATGATAATTACACCCATAAATGGATCATTATCACCCCCAATTTAACTATAACGCTCTGATCATAGTCAGACCAACATTGCTACGACCCGTATTCGCACCGACAC , what is it?
Response line: -1.28

Prompt line: Next record, please: ACATTTGTTGATACAACCATATATTGATATCTCCACCCATAAATTGATAATTATCACACCCATAAATTGATATTGCCTCTGATCATAGTCAGACCAACATTGCTACGACCCGTATTCGCACCGACAC
Response line: -0.348

Prompt line: Also check ACATTTGTTGATACAACCATAAAATGATAATTAATAATTATCACCCATAAATTGATAATTATCACACCCATAAATTGATATTGCCTCTGATCATAGTCAGACCAACATTGCTACGACCCGTATTCGC
Response line: -3.32

Prompt line: Let us now turn to ACATTTGTTGATACAACCATAAAATGATAATGCACAAACGCCCGGTCGCCGGCGACACAAACGCCCGGTCGCGGTAAGAGGATCATAGTCAGACCAACATTGCTACGACCCGTATTCGCACCGACAC
Response line: -2.15

Prompt line: And for ACATTTGTTGATACAACCATAAAATGATAATTACACCCATAAATTGAATTATATCACACCCATAAATTGATATTGCCTCTGATCATAGTCAGACCAACATTGCTACGACCCGTATTCGCACCGACAC ?
Response line: -1.65

----------
Tested on: VchCAST RNA-guided transposition machinery (E. coli BL21(DE3) host, lacZ target)
Assay: relative integration efficiency (T-RL orientation) vs wild-type transposon end (log2 (normalized fold change)); transposon end mutated: right end (5 bp flank + 75 bp right end); higher = more efficient transposition
readout.kind: relative integration efficiency (log2)
API note: the answer field is a bare number with no unit suffix.

Prompt line: What value of relative integration efficiency (log2) has been reported for the following sequence? AGTAATGTTGATACAACCATAAAATGATAATTACACCCATAAATTGATAATTATCACACCCATAAATTGATATTGCCTCTGATCATAGTCAGACCAACATTGCTACGACCCGTATTCGCACCGACAC
Response line: -0.121

Prompt line: Next: ACATTGGTTGATACAACCATAAAATGATAATTACACCCATAAATGGATAATTATCACACCCAATTTAACTATAACGCTCTGATCATAGTCAGACCAACATTGCTACGACCCGTATTCGCACCGACAC
Response line: -7.99

Prompt line: Could you do the same for ACATTTCTTGATACAACCATAAAATGATAATTACACCCATAAATGGATAATTATCACACCCAATTTAACTATAACGCTCTGATCATAGTCAGACCAACATTGCTACGACCCGTATTCGCACCGACAC , please?
Response line: -2

----------
Tested on: VchCAST RNA-guided transposition machinery (E. coli BL21(DE3) host, lacZ target)
Experiment: relative integration efficiency (T-RL orientation) vs wild-type transposon end (log2 (normalized fold change)); transposon end mutated: left end; higher = more efficient transposition
Use -3 as the dividing line for relative integration efficiency (log2), with the line itself on the yes (1) side and lower values as no (0).

Prompt line: // inclusive: relative integration efficiency (log2) at least -3? input: AATGTTGTTGATGCAACCATAAAGTGATCGGGCCGCCGGCGGGCGCCGACTACCAGGCCAACACCCCACCAACGCGCGGTCGCGAGACACCCCACCAACGCCTGGTCGCGGGGGTGTCCGATCTGATTTCAGCAAAACTACTGCAGTAAGAA
Response line: no (0)

Prompt line: Also, AATGTTGTTGATGCAACCATAAAGTGATATTTAATAATTATTTATCAACCATATATTGATATCTCACAAAACAACCATAAGTTGATATTTTTGTGAATCGAGTATTTCAGCAAAACTACTGCAGTAAGAAAGTTACTTCGTGGTATGGGAGG please.
Response line: no (0)

Prompt line: Same read-out for AATGTTGTTGATGCAACCATAAAGTGATATTTAATAATTATTTATAATCAGCAACTTAACCACACCCACCAACGCGCGGTCGCGAGACACCCCACCAACGCCTGGTCGCGGGGGTGTCCGATCTGATTTCAGCAAAACTACTGCAGTAAGAA ?
Response line: no (0)

Prompt line: Quick one: AATGTTGTTGATGCAACCATAAAATGATAATTAATAATTATTTATAATCAGCAACTTAACCACAAAACAACCATAAAATGATAATTATTTTGTCAACCATAAAATGATAATTATGTGAATCGAGTATTTCAGCAAAACTACTGCAGTAAGAA
Response line: yes (1)

Prompt line: Request: AATGTTGTTGATGCAACCATAAAGTGATATTTAATAATTATTTATAATCAGCAACTTAACCACAAAACAACCATATCGGTCGCGAGACACCCCACCAACGCCTGGTCGCGGGGGTGTCCGATCTGATTTCAGCAAAACTACTGCAGTAAGAA
Response line: no (0)

Prompt line: Again, but for AATGTTGTTGATGCAACCATAAAGTGATATTTAATAATTATTTATAACAACCATAAAGTGATATTTACAACCATATATTGATATCTCACAAAACAACCATAAGTTGATATTTTTGTGAATCGAGTATTTCAGCAAAACTACTGCAGTAAGAA
Response line: no (0)

Prompt line: Proceed to AATGTTGTTGATGCAACCATATATTGATATCTCATAATTATTTATAATCAGCAACTTAACCACAAAACAACCATAAAGTGATATTTAACAAAAGTTGGTATTCAACTATAAAATGTGAATCGAGTATTTCAGCAAAACTACTGCAGTAAGAA
Response line: no (0)

Prompt line: Follow-up entry: TTTTGTGTTGATGCAACCATAAAGTGATAACAACGAATCAATTAAAATCATAGGCTTAATCGAAAAACAACCATATCTTGATATCGCATAAAACAACCATAAGTTGATATTTTGGTGAAAAGGATATTCCAACCTTCATAGTTTAGTAAGAA
Response line: yes (1)

Prompt line: Cool, now AATGTTGTTGATGCAACCATAAAGTGATATTTAATAATTATTTATAATCAGCAACTGCCAACACCCCACCAACGCGCGGTCGCGAGACACCCCACCAACGCCTGGTCGCGGGGGTGTCCGATCTGATTTCAGCAAAACTACTGCAGTAAGAA
Response line: no (0)

Prompt line: And then AATGTTGTTGATGCAACCATAAAGTGATATTTAATAATTATTTATCAACCATATATTGATATCTCAATCAGCAACTTAACCACAAAAACAAAACAACCATAAGTTGATATTTTTGTGAATCGAGTATTTCAGCAAAACTACTGCAGTAAGAA , what is it?
Response line: no (0)

Prompt line: Continue with AATGTTGTTGAAACAACCATAAAGTGATAACAACGAATCAATTAAAATCATAGGCTTAATCGAAAAACAACCATATCTTGATATCGCATAAAACAACCATAAGTTGATATTTTTGTGAATCGAGTATTTCAGCAAAACTACTGCAGTAAGAA
Response line: yes (1)

Prompt line: Param item: AATGTTGTTGATGCAACCATAAAGTGATATTTAATAATTATTTATAATCAGCAACTTAACCACAAAACAACCATATATTGATATCTCACAAAACAACCATAAGTTGCGCGGGGGTGTCCGATCTGATTTCAGCAAAACTACTGCAGTAAGAA
Response line: yes (1)

Prompt line: Then what about the sequence AATGTTGTTGATGCAACCATAAAGTGATATTGCCGCCGGCGGGCGCCGACTACCAGGCCAACACCCCACCAACGCGCGGTCGCGAGACACCCCACCAACGCCTGGTCGCGGGGGTGTCCGATCTGATTTCAGCAAAACTACTGCAGTAAGAA ?
Response line: no (0)

Prompt line: Lookup AATGTTGTTGATGCAACCATAAAGTGATATTTAATAATTATTTATAATCAGCAACTTAACCACCAACCATATATTGATATCTCACAAAACAACCATAAGTTGATATTTTTGTGAATCGAGTATTTCAGCAAAACTACTGCAGTAAGAAAGTT
Response line: no (0)

Prompt line: Request: AATGTTGTTGATGCAACCATAAAGTGATATTTAATAATTATTTATAATCAGCCCAGGCCAACACCCCACCAACGCGCGGTCGCGAGACACCCCACCAACGCCTGGTCGCGGGGGTGTCCGATCTGATTTCAGCAAAACTACTGCAGTAAGAA
Response line: no (0)

Prompt line: Another sequence to check: AATGTTGTTGATGCAACCATAAAGTGATATTTAATACGGCGGGCGCCGACTACCAGGCCAACACCCCACCAACGCGCGGTCGCGAGACACCCCACCAACGCCTGGTCGCGGGGGTGTCCGATCTGATTTCAGCAAAACTACTGCAGTAAGAA
Response line: no (0)
